All figures here come from patent US20210300924A1.

Catalogue of pIC50 readings, one per entry.
- SYSTEM: human TLR8 (Homo sapiens)
- Sequence (Q9NR97 27-1041): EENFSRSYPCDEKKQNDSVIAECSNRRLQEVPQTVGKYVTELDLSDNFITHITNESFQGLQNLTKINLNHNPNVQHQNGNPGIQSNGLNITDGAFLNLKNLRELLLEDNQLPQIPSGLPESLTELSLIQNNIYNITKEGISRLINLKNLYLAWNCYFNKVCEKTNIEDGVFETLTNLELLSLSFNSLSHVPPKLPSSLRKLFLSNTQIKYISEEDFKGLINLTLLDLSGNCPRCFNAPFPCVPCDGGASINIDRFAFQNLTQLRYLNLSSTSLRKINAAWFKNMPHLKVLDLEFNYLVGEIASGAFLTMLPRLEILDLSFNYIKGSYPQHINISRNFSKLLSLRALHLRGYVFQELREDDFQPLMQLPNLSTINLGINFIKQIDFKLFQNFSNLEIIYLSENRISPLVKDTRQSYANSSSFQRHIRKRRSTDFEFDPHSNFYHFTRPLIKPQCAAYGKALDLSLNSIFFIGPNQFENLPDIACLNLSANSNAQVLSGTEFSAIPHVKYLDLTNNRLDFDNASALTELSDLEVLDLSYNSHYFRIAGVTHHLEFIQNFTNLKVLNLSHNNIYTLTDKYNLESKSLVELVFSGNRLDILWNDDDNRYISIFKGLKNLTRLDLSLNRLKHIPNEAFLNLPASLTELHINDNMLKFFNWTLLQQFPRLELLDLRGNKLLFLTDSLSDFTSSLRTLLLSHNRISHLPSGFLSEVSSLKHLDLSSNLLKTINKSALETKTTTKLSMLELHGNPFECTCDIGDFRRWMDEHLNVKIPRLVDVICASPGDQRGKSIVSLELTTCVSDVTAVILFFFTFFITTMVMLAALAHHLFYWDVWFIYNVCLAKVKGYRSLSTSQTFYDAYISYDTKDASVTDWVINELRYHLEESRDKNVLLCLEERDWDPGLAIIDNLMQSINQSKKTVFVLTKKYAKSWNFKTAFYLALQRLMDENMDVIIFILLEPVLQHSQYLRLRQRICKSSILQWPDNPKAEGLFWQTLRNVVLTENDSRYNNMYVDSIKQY
- METHOD_DESCRIPTION: HEK293-Blue-hTLR-8 cells assay
- CONDITION_INFO: HEK293-Blue-hTLR8 cells, R848 stimulation, 20 hrs, SEAP reporter; read-out: HEK/hTLR8 IC50
Kindly note that pIC50 refers to -log10 of the concentration in mol/L and answer with the value alone.

C[C@@H]1CN(c2ccc(C#N)c3ncccc23)C[C@H](CN2CC(n3cc4c(n3)CCN[C@H]4C)C2)O1	7.36
C[C@@H]1CN(c2ccc(C#N)c3ncccc23)C[C@H](CN2CC(n3ncc4c3[C@H](C)NCC4)C2)O1 (single isomer, unassigned)	8.00
C[C@@H]1CN(c2ccc(C#N)c3ncccc23)C[C@H](CN2CC(n3cc4c(n3)CN[C@@H](C)C4)C2)O1 (single isomer, unassigned)	7.96
Cc1nn(C2CN(C[C@H]3CN(c4ccc(C#N)c5ncccc45)C[C@@H](C)O3)C2)c2c1CCNC2	7.74
Cc1c2c(nn1C1CN(C[C@H]3CN(c4ccc(C#N)c5ncccc45)C[C@@H](C)O3)C1)CCNC2	7.35
C[C@@H]1CN(c2ccc(C#N)c3ncccc23)C[C@H](CN2CC(n3cc4c(n3)CN(C)CC4)C2)O1	8.22
C[C@@H]1Cc2c(cnn2C2CN(C[C@H]3CN(c4ccc(C#N)c5ncccc45)C[C@@H](C)O3)C2)CN1	7.80
C[C@@H]1CN(c2ccc(C#N)c3ncccc23)C[C@H](CN2CC(n3cc4c(n3)CCNC4)C2)O1	7.72

Form field, pIC50 with human TLR8 (Homo sapiens), item `C[C@@H]1CN(c2ccc(C#N)c3ncccc23)C[C@H](CN2CC(n3ncc4c3CCN[C@H]4C)C2)O1` : 7.43

Form field, pIC50 with human TLR8 (Homo sapiens), item `C[C@@H]1CN(c2ccc(C#N)c3ncccc23)C[C@H](CN2CC(n3cc4c(n3)C(C)(C)CNC4)C2)O1` : 7.85

Form field, pIC50 with human TLR8 (Homo sapiens), item `C[C@@H]1Cc2nn(C3CN(C[C@H]4CN(c5ccc(C#N)c6ncccc56)C[C@@H](C)O4)C3)cc2CN1` : 7.74
